target.entity: mTET2^CD (Mus musculus)
Sequence (Q4JK59 1042-1912 limits assumed): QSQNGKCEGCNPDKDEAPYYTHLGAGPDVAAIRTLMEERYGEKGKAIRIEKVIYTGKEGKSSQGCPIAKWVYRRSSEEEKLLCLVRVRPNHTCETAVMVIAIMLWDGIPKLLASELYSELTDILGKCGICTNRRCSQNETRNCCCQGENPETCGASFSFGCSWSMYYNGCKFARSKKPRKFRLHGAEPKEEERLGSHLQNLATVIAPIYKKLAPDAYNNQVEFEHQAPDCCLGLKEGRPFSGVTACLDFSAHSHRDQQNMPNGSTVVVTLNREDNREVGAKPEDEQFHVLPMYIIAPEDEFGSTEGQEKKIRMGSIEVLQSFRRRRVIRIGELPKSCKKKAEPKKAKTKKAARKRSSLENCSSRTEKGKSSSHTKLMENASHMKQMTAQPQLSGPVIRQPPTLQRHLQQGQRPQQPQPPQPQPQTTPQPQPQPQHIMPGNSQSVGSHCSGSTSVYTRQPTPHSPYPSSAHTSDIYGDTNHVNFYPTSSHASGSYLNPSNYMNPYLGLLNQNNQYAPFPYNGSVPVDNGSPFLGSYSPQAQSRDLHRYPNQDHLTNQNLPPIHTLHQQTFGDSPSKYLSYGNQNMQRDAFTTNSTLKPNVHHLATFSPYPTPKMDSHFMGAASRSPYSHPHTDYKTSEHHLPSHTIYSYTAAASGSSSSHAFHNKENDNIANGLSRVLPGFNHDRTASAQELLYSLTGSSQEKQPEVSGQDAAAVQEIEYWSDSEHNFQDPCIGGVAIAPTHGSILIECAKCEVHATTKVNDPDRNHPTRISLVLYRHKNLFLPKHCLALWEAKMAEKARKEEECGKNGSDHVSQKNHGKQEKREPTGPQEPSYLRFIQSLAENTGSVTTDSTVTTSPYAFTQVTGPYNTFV
Format: biochemical
test.conditions: read-out: IC50 toward mTET2^CD catalytic activity; 0.1 mM α-KG, 37°C 30 min
pIC50: −log10 of the molar value.
result.type: pIC50

I would be grateful if you could share the reported pIC50 for O=C(O)/C=C/C(=O)O [fumarate] .
< 2.30
